Target: T1, EsCas13d, nuclease-dead (Eubacterium siraeum, UniProt B0MS50, R295A;H300A;R849A;H854A)
T1 sequence: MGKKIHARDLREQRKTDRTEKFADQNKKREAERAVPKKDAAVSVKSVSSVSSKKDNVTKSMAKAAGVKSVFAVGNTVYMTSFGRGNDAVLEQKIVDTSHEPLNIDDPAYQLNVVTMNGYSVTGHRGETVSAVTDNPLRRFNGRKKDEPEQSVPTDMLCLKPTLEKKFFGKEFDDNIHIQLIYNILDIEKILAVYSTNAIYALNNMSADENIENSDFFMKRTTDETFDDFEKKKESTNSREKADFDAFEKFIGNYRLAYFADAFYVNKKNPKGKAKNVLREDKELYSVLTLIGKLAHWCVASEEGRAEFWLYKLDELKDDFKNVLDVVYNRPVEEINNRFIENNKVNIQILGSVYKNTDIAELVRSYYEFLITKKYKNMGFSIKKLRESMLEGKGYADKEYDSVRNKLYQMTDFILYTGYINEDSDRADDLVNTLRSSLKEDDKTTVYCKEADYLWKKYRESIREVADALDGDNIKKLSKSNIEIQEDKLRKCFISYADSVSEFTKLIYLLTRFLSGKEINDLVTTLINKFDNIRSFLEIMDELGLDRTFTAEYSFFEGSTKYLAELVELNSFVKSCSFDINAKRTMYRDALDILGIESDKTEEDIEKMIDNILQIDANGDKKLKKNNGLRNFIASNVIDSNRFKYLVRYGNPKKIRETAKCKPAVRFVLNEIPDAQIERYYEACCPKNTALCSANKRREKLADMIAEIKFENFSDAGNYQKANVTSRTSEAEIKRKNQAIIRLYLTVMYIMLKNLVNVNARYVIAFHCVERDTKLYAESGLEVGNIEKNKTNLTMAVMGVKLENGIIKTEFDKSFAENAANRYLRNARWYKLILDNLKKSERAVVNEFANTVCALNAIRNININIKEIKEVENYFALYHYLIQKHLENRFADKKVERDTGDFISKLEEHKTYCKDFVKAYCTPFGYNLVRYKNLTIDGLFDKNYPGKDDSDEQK
Test: crRNA (strand 1, pre-loaded); Mg2+; 40 mM Tris-HCl pH 7.5, 150 mM NaCl, 6 mM MgCl2, 1 mM DTT, 0.1% Tween-20, 0.2 mg/ml BSA; 25 C; 10 min per concentration, then washed
Conditions: tags: His6-TwinStrep-SUMO cleaved; N-terminal SNAP kept (SNAP-Surface 488); label: 3' end held by stalled T7 RNA polymerase
Measure name: Kd (nM)
// note: answer is a bare numeric in nM

Qu. I am curious: what Kd value has been reported for target 1 G5C,U19A (mixed) RNA 1: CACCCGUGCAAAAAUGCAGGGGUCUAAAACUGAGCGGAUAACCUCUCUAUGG RNA 2: GGGAAUGGAUCCACAUCUACGAAUUCGUACCAAAGAGAGGUUAUCCCCUCACCGAGAUCGGAAGAGCACACGU ?
Ans. 34.1

Qu. Follow-up item: target 1 insU 3' of 18,insC 3' of 3 (mixed) RNA 1: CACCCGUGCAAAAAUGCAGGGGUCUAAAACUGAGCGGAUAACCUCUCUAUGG RNA 2: GGGAAUGGAUCCACAUCUACGAAUUCGUACCAUAUGAGAGGUUAUCCGCUCCACCGAGAUCGGAAGAGCACACGU
Ans. 28

Qu. Follow-up entry: target 1 insC 3' of 16,insC 3' of 14 (mixed) RNA 1: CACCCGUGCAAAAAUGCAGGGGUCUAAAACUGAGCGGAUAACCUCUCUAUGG RNA 2: GGGAAUGGAUCCACAUCUACGAAUUCGUACCAUAGACGACGGUUAUCCGCUCACCGAGAUCGGAAGAGCACACGU
Ans. 75

src = paper PMC10786891
